Exercise: for every item that follows, state its recorded HeLa-ACE2 CC50/CoV-2 EC50.
Test system: SARS-CoV-2

The compound "CCCCN1CC[C@H](c2ccc(N(C)C)cc2)[C@@H](COc2ccc(C(F)(F)F)cc2)C1" showed HeLa-ACE2 CC50/CoV-2 EC50 equal to >5.59

The compound "N#Cc1ccc2c(c1)[C@H]1CN(CCCCNC(=O)c3ccc(-c4ccccc4)cc3)C[C@@H]1CO2" showed HeLa-ACE2 CC50/CoV-2 EC50 equal to >6.34

Notebook: "CC(C)Oc1ccc(-c2nc(-c3cccc4c3CC[C@@H]4NCCO)no2)cc1C#N" , HeLa-ACE2 CC50/CoV-2 EC50 read as >5.60

###

System: SARS-CoV-2
Assay Overview: microbe, parasite or virus in culture
Experimental Conditions: Severe acute respiratory syndrome coronavirus 2, HeLa-ACE2, 24 h, read-out: CoV-2 EC50 [μM] (Geomeans, n ≥ 2)
Readout Name: EC50

Notebook: COc1ccc2c(c1)CN(C)CC2c1ccc(Cl)c(Cl)c1 (centres unmarked) , EC50 read as > 7.89 µM

For record "CC(C)(/C=N/OCC(=O)O)Cc1c(SC(C)(C)C)c2cc(OCc3ccc4ccccc4n3)ccc2n1Cc1ccc(Cl)cc1" the listed EC50 is > 7.47 µM

For reference, reported EC50 for "C[C@@H]1CCCN1CCc1cc2cc(-c3ccc(C#N)cc3)ccc2o1" stands at > 3.33 µM

// field: EC50; key: O=C(CCCN1CCN(c2ccc(F)cc2)CC1)NC1c2ccccc2CSc2ccccc21 (centres unmarked) [MONATEPIL] ; value = > 7.79 µM

// field: EC50; key: CC(C)(C)NC(=O)N[C@H](C(=O)N1C[C@H]2[C@@H]([C@H]1C(=O)NC(CC1CCC1)C(=O)C(N)=O)C2(C)C)C(C)(C)C (some centres unmarked) ; value = > 9.34 µM

###

Please provide measured HeLa-ACE2 SI CC50/CoV-2 EC50 for the entries that follow.
Tested on: SARS-CoV-2
Experimental Conditions: Table 4
Reply with just the number.

SARS-CoV-2 assay, compound O=C(Nc1ccc(Cl)c(S(=O)(=O)N2CCNCC2)c1O)Nc1cccc(F)c1Cl [Elubrixitosylate] , recorded HeLa-ACE2 SI CC50/CoV-2 EC50 = 4.35

Record "Cn1c(C#N)ccc1-c1ccc2c(c1)C(C)(C)OC(=S)N2" has SARS-CoV-2 HeLa-ACE2 SI CC50/CoV-2 EC50 equal to 0.91

Sample "CO[C@H]1[C@@H](O)C[C@H](O[C@H]2[C@@H](O)C[C@H](O[C@H]3[C@@H](O)C[C@H](O[C@H]4CC[C@@]5(C)[C@H](CC[C@@H]6[C@@H]5C[C@@H](O)[C@]5(C)[C@@H](C7=CC(=O)OC7)CC[C@]65O)C4)O[C@@H]3C)O[C@@H]2C)O[C@@H]1C" , system: SARS-CoV-2. Its HeLa-ACE2 SI CC50/CoV-2 EC50 is 0.56

Result for "CC[C@H]1CN2CCc3cc(OC)c(OC)cc3[C@@H]2C[C@@H]1C[C@H]1NCCc2cc(O)c(OC)cc21" , tested on SARS-CoV-2, HeLa-ACE2 SI CC50/CoV-2 EC50: 12.66

Reported SARS-CoV-2 HeLa-ACE2 SI CC50/CoV-2 EC50 for item CC(=O)O[C@H]1C[C@H](O[C@H]2[C@@H](O)C[C@H](O[C@H]3[C@@H](O)C[C@H](O[C@H]4CCC5(C)[C@H](CC[C@@H]6[C@@H]5CCC5(C)[C@@H](C7=CC(=O)OC7)[C@@H](O)CC65O)C4)O[C@@H]3C)O[C@@H]2C)O[C@H](C)[C@H]1O[C@@H]1O[C@H](CO)[C@@H](O)[C@H](O)[C@H]1O (stereo partly drawn) [[…]] was 2.175

Result for C[C@@H]1C[C@@H]([C@H](O)CC2CC(=O)NC(=O)C2)C(=O)[C@@H](C)C1 [Cycloheximide] , tested on SARS-CoV-2, HeLa-ACE2 SI CC50/CoV-2 EC50: 2.32

SARS-CoV-2 assay, compound "Cc1nc2c(s1)C(=O)C=C(NCCN(C)C)C2=O" , recorded HeLa-ACE2 SI CC50/CoV-2 EC50 = 3.04

Item "O=c1[nH]ccc2cc(OC3CCNCC3)ccc12" ; assay system SARS-CoV-2; HeLa-ACE2 SI CC50/CoV-2 EC50 reported as 4.03

Given the compound CSc1ncnc2c1ncn2[C@@H]1O[C@H](CO)[C@@H](O)[C@H]1O [6-Methyl mercaptopurineriboside] and test system SARS-CoV-2, the measured HeLa-ACE2 SI CC50/CoV-2 EC50 is 4.27

For "CC(=O)OC[C@H]1O[C@@H]([S-])[C@H](OC(C)=O)[C@@H](OC(C)=O)[C@@H]1OC(C)=O.CCP(CC)CC.[Au+]" on SARS-CoV-2, measured HeLa-ACE2 SI CC50/CoV-2 EC50 was 0.64

The reported HeLa-ACE2 SI CC50/CoV-2 EC50 value, SARS-CoV-2, for "Nc1nc2[nH]cnc2c(=S)[nH]1" reads 3.58

CC1OC(O[C@H]2CC[C@@]3(C=O)[C@H](CC[C@@H]4[C@@H]3CC[C@]3(C)[C@@H](C5=CC(=O)OC5)CC[C@]43O)C2)C(O)C(O)C1O (stereo partly drawn) [Peruvoside (analog)] on SARS-CoV-2 gives HeLa-ACE2 SI CC50/CoV-2 EC50 = 1.40

Hey, SARS-CoV-2 data for CSc1ccc(CN2CCCC(Nc3ccc4[nH]ncc4c3)C2)cc1 (stereo not drawn) : HeLa-ACE2 SI CC50/CoV-2 EC50 came out at 4.15

Record CCCCCCCCCCCCCC(=O)O[C@@H]1[C@@H](C)[C@@]2(O)[C@@H](C=C(CO)C[C@]3(O)C(=O)C(C)=C[C@@H]23)[C@@H]2C(C)(C)[C@]12OC(C)=O [Phorbol 12-myristate 13-acetate] ; system SARS-CoV-2; HeLa-ACE2 SI CC50/CoV-2 EC50 = 2.89

###

Answer each item with its documented HeLa-ACE2 CC50/CoV-2 EC50.

The compound CCCCC1CCc2cc(O)cc3c(CCN4CCN(c5cc(C)ccn5)CC4)c(C)n1c23 (stereo not drawn) , when measured on SARS-CoV-2, yielded HeLa-ACE2 CC50/CoV-2 EC50 of >8.39

Measured HeLa-ACE2 CC50/CoV-2 EC50 (SARS-CoV-2), entry "CCOC(=O)[C@@H]1O[C@H]1C(=O)N[C@@H](CC(C)C)C(=O)N1CCN(Cc2ccc(OC)c(OC)c2OC)CC1" : >50.44

Query "CNC(=O)c1cc(Oc2ccc(NC(=O)Nc3ccc(Cl)c(C(F)(F)F)c3)cc2)ccn1" on SARS-CoV-2; HeLa-ACE2 CC50/CoV-2 EC50 returned: >1.52

Measured on SARS-CoV-2, CCN(CCO)CCCC(C)Nc1ccnc2cc(Cl)ccc12 (stereo not drawn) [hydroxychloroquine, nasal, hydroxychloroquine] has a documented HeLa-ACE2 CC50/CoV-2 EC50 of >40.04

Response field HeLa-ACE2 CC50/CoV-2 EC50 (SARS-CoV-2) for item "COC(=O)[C@H]1[C@H]2C[C@@H]3c4[nH]c5cc(OC)ccc5c4CCN3C[C@H]2C[C@@H](OC(=O)c2cc(OC)c(OC)c(OC)c2)[C@@H]1OC" : >6.60

Param item: CCCCCCOC(=O)NC(=N)c1ccc(NCc2nc3cc(C(=O)N(CCC(=O)OCC)c4ccccn4)ccc3n2C)cc1 [Dabigatranetexilate mesilate] ; param system: SARS-CoV-2; output HeLa-ACE2 CC50/CoV-2 EC50: >6.50

###

Tested on: SARS-CoV-2
# label = condition met if HeLa-ACE2 CC50/CoV-2 EC50 >= 5 else condition not met

INPUT: hey, is HeLa-ACE2 CC50/CoV-2 EC50 for this one >= 5? CN1CCN(C2=Cc3cc(Cl)ccc3/C(=C\C#N)c3ccccc32)CC1 [Alkene Stereoisomer analog of Rilapine]
OUTPUT: condition met

INPUT: // inclusive: HeLa-ACE2 CC50/CoV-2 EC50 at least 5? input: "CN1CCN(c2ccc(C(=O)NCc3cnc(C#N)nc3NCC(C)(C)C)cc2)CC1"
OUTPUT: condition met

INPUT: Dear colleague, could you confirm whether CC(CN(C)C)CN1c2ccccc2CCc2ccccc21 (stereo not drawn) has HeLa-ACE2 CC50/CoV-2 EC50 at or above 5?
OUTPUT: condition met

INPUT: For this compound, is measured HeLa-ACE2 CC50/CoV-2 EC50 5 or higher? CC(CN1CCN(c2cccc3c2CCCN3)CC1)NC(=O)c1ccc(F)cc1 (stereo not drawn)
OUTPUT: condition not met

INPUT: Item "O=c1c2ccccc2[se]n1-c1ccccc1" with HeLa-ACE2 CC50/CoV-2 EC50 of 5 or above?
OUTPUT: condition not met

INPUT: Would you say "N#Cc1c(N)nc(N)nc1N[C@H](c1nc2c(F)ccc(Cl)c2c(=O)n1-c1cccnc1)C1CC1" shows HeLa-ACE2 CC50/CoV-2 EC50 at minimum 5?
OUTPUT: condition met

INPUT: Say whether "CCNCc1cc(Nc2ccnc3cc(Cl)ccc23)ccc1O" shows HeLa-ACE2 CC50/CoV-2 EC50 of 5 or more.
OUTPUT: condition met

INPUT: Check this compound for HeLa-ACE2 CC50/CoV-2 EC50 at or above 5: CN(C)CCC1CCc2cc(OCc3ccc(-c4ccccc4)cc3)ccc2C1 (stereo not drawn)
OUTPUT: condition met

INPUT: Answer whether HeLa-ACE2 CC50/CoV-2 EC50 of c1cn2cc(-c3ccc4c(c3)nc3n4CCN4CCCCC4C3)ccc2n1 (stereo not drawn) is greater than or equal to 5.
OUTPUT: condition not met

INPUT: Form field: HeLa-ACE2 CC50/CoV-2 EC50 at least 5? Entry: "Cc1cccc(/C=N/Nc2cc(N3CCOCC3)nc(OCCc3ccccn3)n2)c1"
OUTPUT: condition met

INPUT: Determine whether this compound has HeLa-ACE2 CC50/CoV-2 EC50 no lower than 5: "O=S(=O)(Nc1ccc(CCNC[C@H](O)c2cccnc2)cc1)c1ccc(-c2nc(-c3ccc(C(F)(F)F)cc3)cs2)cc1"
OUTPUT: condition met

INPUT: Hi team, for "Cc1cccc(/C=N/Nc2cc(N3CCOCC3)n3nc(-c4ccncc4)cc3n2)c1" , is the recorded HeLa-ACE2 CC50/CoV-2 EC50 at or above 5?
OUTPUT: condition met

INPUT: Is the recorded value of HeLa-ACE2 CC50/CoV-2 EC50 equal to or greater than 5 for this compound? "Oc1ccc(CCN2CCC(Nc3nc4ccccc4n3Cc3ccc(F)cc3)CC2)cc1"
OUTPUT: condition met

INPUT: Given the entry COc1ccc2c(c1)[C@]1(CC1c1ccc3c(/C=C/c4ccc(CN5C[C@@H](C)O[C@@H](C)C5)cc4)n[nH]c3c1)C(=O)N2 (stereo partly drawn) , answer whether its HeLa-ACE2 CC50/CoV-2 EC50 meets or surpasses 5.
OUTPUT: condition not met
